Sourced from ChEMBL document CHEMBL4152245

biological target: Bromodomain-containing protein 4 (Homo sapiens); test: Inhibition of His-tagged BRD4 bromodomain-1 (unknown origin) expressed in Escherichia coli BL21(DE3) at 20 uM using SGRGK(Ac)-GG-K(Ac)-GLG-K(Ac)-GGA-K(Ac)-RHRKVGG-K-Biotin as substrate preincubated for 15 mins followed by substrate addition measured after 10 mins by Alphascreen assay relative to control
assay.readout: inhibition (%)

{"columns": ["smiles.data", "value.observed"],
 "data": [
  ["CCN1C(=O)c2cccc3c(S(=O)(=O)NCCC(=O)O)ccc1c23", 60],
  ["CCOC(=O)CNS(=O)(=O)c1ccc2c3c(cccc13)C(=O)N2CC", 12],
  ["CCN1C(=O)c2cccc3c(S(=O)(=O)N4CCC[C@@H]4C(=O)Nc4ccc(C)cc4)ccc1c23", 51],
  ["CCN1C(=O)c2cccc3c(S(=O)(=O)N(CC)CC)ccc1c23", 82],
  ["CCN1C(=O)c2cccc3c(S(=O)(=O)N4CCC(N)CC4)ccc1c23", 16]
]}

###

target: Bromodomain-containing protein 4 (Homo sapiens); experiment: Inhibition of His-tagged BRD4 bromodomain-1 (unknown origin) expressed in Escherichia coli BL21(DE3) at 5 uM using SGRGK(Ac)-GG-K(Ac)-GLG-K(Ac)-GGA-K(Ac)-RHRKVGG-K-Biotin as substrate preincubated for 15 mins followed by substrate addition measured after 10 mins by Alphascreen assay relative to control
Calls of active or inactive are those of the source. The rule behind the calls is not given here.

{"columns": ["smiles.data", "inhibition"],
 "data": [
  ["CCN1C(=O)c2cccc3c(S(=O)(=O)N4CCC[C@@H]4C(=O)O)ccc1c23", "66%"],
  ["CCN1C(=O)c2cccc3c(S(=O)(=O)N4CC[C@@H](OC)C4)ccc1c23", "17%"],
  ["CCN1C(=O)c2cccc3c(S(=O)(=O)NCCC(=O)O)ccc1c23", "41%"],
  ["CCN1C(=O)c2cccc3c(S(=O)(=O)N4CCC(N)CC4)ccc1c23", "inactive"],
  ["CCN1C(=O)c2cccc3c(S(=O)(=O)N4CCOCC4)ccc1c23", "55%"],
  ["CCN1C(=O)c2cccc3c(S(=O)(=O)N4CCC[C@H](O)C4)ccc1c23", "inactive"],
  ["CCN1C(=O)c2cccc3c(S(=O)(=O)N[C@@H](Cc4ccccc4)C(=O)OC)ccc1c23", "37%"],
  ["CCN1C(=O)c2cccc3c(S(=O)(=O)N4CC[C@@H](N)C4)ccc1c23", "3%"],
  ["CCN1C(=O)c2cccc3c(S(=O)(=O)N4CCC(CNC(=O)OC(C)(C)C)CC4)ccc1c23", "inactive"],
  ["CCCN1C(=O)c2cccc3c(S(=O)(=O)N4CCCC4)ccc1c23", "inactive"]
]}

###

molecular target: Bromodomain-containing protein 4 (Homo sapiens); assay: Inhibition of BRD4 (unknown origin) by Alphascreen assay
pIC50: −log10 of the molar value.
assay.readout: pIC50

{"columns": ["smiles.data", "target.of.assay", "assay.readout", "value.observed"],
 "data": [
  ["Cc1sc2c(c1C)C(c1ccc(Cl)cc1)=C[C@@H](CC(=O)OC(C)(C)C)c1nnc(C)n1-2", "Bromodomain-containing protein 4 (Homo sapiens)", "pIC50", 7.11]
]}

###

molecular target: Bromodomain-containing protein 4 (Homo sapiens); assay: Inhibition of His-tagged BRD4 bromodomain-1 (unknown origin) expressed in Escherichia coli BL21(DE3) at 5 uM using SGRGK(Ac)-GG-K(Ac)-GLG-K(Ac)-GGA-K(Ac)-RHRKVGG-K-Biotin as substrate preincubated for 15 mins followed by substrate addition measured after 10 mins by Alphascreen assay relative to control
Activity calls are given as the source filed them. The calls are words filed in the database; no cut-off is given here.

{"columns": ["smiles.data", "target.of.assay", "inhibition"],
 "data": [
  ["CN1C(=O)c2cccc3c(S(=O)(=O)N4CCCC4)ccc1c23", "Bromodomain-containing protein 4 (Homo sapiens)", "5%"],
  ["CCN1C(=O)c2cccc3c(S(=O)(=O)N4CCC[C@@H]4C(=O)Nc4ccccc4O)ccc1c23", "Bromodomain-containing protein 4 (Homo sapiens)", "inactive"],
  ["CN(C)C(=O)CN1C(=O)c2cccc3c(S(=O)(=O)N4CCCC4)ccc1c23", "Bromodomain-containing protein 4 (Homo sapiens)", "inactive"],
  ["CCN1C(=O)c2cccc3c(S(=O)(=O)N4CCC[C@H]4CO)ccc1c23", "Bromodomain-containing protein 4 (Homo sapiens)", "11%"],
  ["CCN1C(=O)c2cccc3c(S(=O)(=O)N4CC[C@H](OC)C4)ccc1c23", "Bromodomain-containing protein 4 (Homo sapiens)", "28%"],
  ["CCN1C(=O)c2cccc3c(S(=O)(=O)N4CC[C@H](NC(=O)OC(C)(C)C)C4)ccc1c23", "Bromodomain-containing protein 4 (Homo sapiens)", "37%"],
  ["CCN1C(=O)c2cccc3c(S(=O)(=O)N4CCC[C@@H]4CO)ccc1c23", "Bromodomain-containing protein 4 (Homo sapiens)", "9%"],
  ["CCN1C(=O)c2cccc3c(S(=O)(=O)N4CC[C@@H](NC(=O)OC(C)(C)C)C4)ccc1c23", "Bromodomain-containing protein 4 (Homo sapiens)", "57%"],
  ["CCN1C(=O)c2cccc3c(S(=O)(=O)N4CC[C@@H](O)C4)ccc1c23", "Bromodomain-containing protein 4 (Homo sapiens)", "21%"]
]}

###

target: Bromodomain-containing protein 4 (Homo sapiens); assay: Inhibition of His-tagged BRD4 bromodomain-1 (unknown origin) expressed in Escherichia coli BL21(DE3) at 5 uM using SGRGK(Ac)-GG-K(Ac)-GLG-K(Ac)-GGA-K(Ac)-RHRKVGG-K-Biotin as substrate preincubated for 15 mins followed by substrate addition measured after 10 mins by Alphascreen assay relative to control
Activity calls are given as the source filed them. The calls are words filed in the database; no cut-off is given here.

{"columns": ["smiles.data", "inhibition"],
 "data": [
  ["CCN1C(=O)c2cccc3c(S(=O)(=O)N4CCC[C@H](NC(=O)OC(C)(C)C)C4)ccc1c23", "7%"],
  ["CCN1C(=O)c2cccc3c(S(=O)(=O)N[C@H](C(=O)OC)C(C)C)ccc1c23", "21%"],
  ["CCN1C(=O)c2cccc3c(S(=O)(=O)NCC(=O)O)ccc1c23", "inactive"],
  ["CCN1C(=O)c2cccc3c(S(=O)(=O)N4CCC[C@@H]4C(=O)Nc4ccc(C)cc4)ccc1c23", "8%"],
  ["O=C(O)CN1C(=O)c2cccc3c(S(=O)(=O)N4CCCC4)ccc1c23", "inactive"],
  ["CCOC(=O)CNS(=O)(=O)c1ccc2c3c(cccc13)C(=O)N2CC", "inactive"],
  ["CC(=O)N1C(=O)c2cccc3c(S(=O)(=O)N4CCCC4)ccc1c23", "7%"],
  ["CCN1C(=O)c2cccc3c(S(=O)(=O)N4CCC[C@@H](N)C4)ccc1c23", "inactive"],
  ["CCN1C(=O)c2cccc3c(S(=O)(=O)N4CCC[C@@H]4C(=O)Nc4ccc(O)cc4)ccc1c23", "18%"]
]}

###

molecular target: Bromodomain-containing protein 4 (Homo sapiens, UniProt O60885); test: Inhibition of His-tagged BRD4 bromodomain-1 (unknown origin) expressed in Escherichia coli BL21(DE3) using SGRGK(Ac)-GG-K(Ac)-GLG-K(Ac)-GGA-K(Ac)-RHRKVGG-K-Biotin as substrate preincubated for 15 mins followed by substrate addition measured after 10 mins by Alphascreen assay
Consider the cut-off 20 µM. If the recorded IC50 is strictly smaller, the label is Criterion met; if not, the label is Criterion not met.

{"columns": ["smiles.data", "classification"],
 "data": [
  ["CCN1C(=O)c2cccc3c(S(=O)(=O)N4CCC[C@@H]4C(=O)NN)ccc1c23", "Criterion met"],
  ["CC(=O)N1C(=O)c2cccc3c(S(=O)(=O)N4CCCC4)ccc1c23", "Criterion met"],
  ["CCN1C(=O)c2cccc3c(S(=O)(=O)N4CC[C@H](NC(=O)OC(C)(C)C)C4)ccc1c23", "Criterion not met"],
  ["CCN1C(=O)c2cccc3c(S(=O)(=O)NCCO)ccc1c23", "Criterion met"],
  ["O=C1c2cccc3c(S(=O)(=O)N4CCCC4)ccc(c23)N1CCO", "Criterion not met"],
  ["CCN1C(=O)c2cccc3c(S(=O)(=O)N(CC)CC)ccc1c23", "Criterion not met"],
  ["CCN1C(=O)c2cccc3c(S(=O)(=O)N4CCCC4)ccc1c23", "Criterion met"],
  ["CCN1C(=O)c2cccc3c(S(=O)(=O)N4CCCCC4)ccc1c23", "Criterion not met"],
  ["CCN1C(=O)c2cccc3c(S(=O)(=O)N4CCC[C@@H]4C(=O)Nc4ccccc4)ccc1c23", "Criterion met"],
  ["CCN1C(=O)c2cccc3c(S(=O)(=O)N4CC[C@@H](NC(=O)OC(C)(C)C)C4)ccc1c23", "Criterion met"],
  ["CCN1C(=O)c2cccc3c(S(=O)(=O)N4CCC[C@@H](O)C4)ccc1c23", "Criterion not met"],
  ["CCN1C(=O)c2cccc3c(S(=O)(=O)N4CC[C@@H](OC)C4)ccc1c23", "Criterion met"],
  ["CCCN1C(=O)c2cccc3c(S(=O)(=O)N4CCCC4)ccc1c23", "Criterion met"],
  ["O=C(O)CN1C(=O)c2cccc3c(S(=O)(=O)N4CCCC4)ccc1c23", "Criterion not met"],
  ["CN(C)C(=O)CN1C(=O)c2cccc3c(S(=O)(=O)N4CCCC4)ccc1c23", "Criterion met"],
  ["CCN1C(=O)c2cccc3c(S(=O)(=O)N4CCC[C@@H]4C(=O)O)ccc1c23", "Criterion met"],
  ["CCN1C(=O)c2cccc3c(S(=O)(=O)N4CC[C@@H](O)C4)ccc1c23", "Criterion not met"]
]}
